tested on: corn (Zea mays); test: Test G Post-Emergence Protocol; assay type: in vivo; conditions: Zea mays, post-emergence, 312 h, 250 g ai/ha, evaluated after 13 days, read-out: damage to plant, Corn (100=total damage to plant; 0=no damage to plant)
measured quantity: plant injury at 250 g/ha (%)

[[record]]
compound = "CN1C[C@H](c2ccc(C(F)(F)F)cc2)[C@](C)(C(=O)Nc2cccc(F)c2F)C1=O (racemic)"
target_system = "corn (Zea mays)"
measured_quantity = "plant injury at 250 g/ha"
result_value = 10

[[record]]
compound = "CN1C[C@H](c2cccc(C(C)(C)C#N)c2)[C@@H](C(=O)Nc2ccccc2F)C1=O (racemic)"
target_system = "corn (Zea mays)"
measured_quantity = "plant injury at 250 g/ha"
result_value = 20

[[record]]
compound = "CN1C[C@H](c2ccc(C(F)(F)F)cc2)[C@@H](C(=O)Nc2ccc(F)cn2)C1=O (racemic)"
target_system = "corn (Zea mays)"
measured_quantity = "plant injury at 250 g/ha"
result_value = 10

[[record]]
compound = "Cc1ccc(NC(=O)[C@@H]2C(=O)N(C)C[C@H]2c2ccc(C(F)(F)F)cc2)c(F)c1 (racemic)"
target_system = "corn (Zea mays)"
measured_quantity = "plant injury at 250 g/ha"
result_value = 10

[[record]]
compound = "Cc1nnc(NC(=O)[C@@H]2C(=O)N(C)C[C@H]2c2ccc(C(F)(F)F)cc2)s1 (racemic)"
target_system = "corn (Zea mays)"
measured_quantity = "plant injury at 250 g/ha"
result_value = 0

[[record]]
compound = "CN1C[C@@H](c2ccc(C(F)(F)F)cc2)[C@H](C(=O)Nc2nc[nH]n2)C1=O (racemic)"
target_system = "corn (Zea mays)"
measured_quantity = "plant injury at 250 g/ha"
result_value = 0

[[record]]
compound = "CN1C[C@@H](c2ccc(C(F)(F)F)cc2)[C@H](C(=O)Nc2cnccn2)C1=O (racemic)"
target_system = "corn (Zea mays)"
measured_quantity = "plant injury at 250 g/ha"
result_value = 0

[[record]]
compound = "CN1C[C@@H](c2ccc(Cl)nc2)[C@H](C(=O)Nc2cccc(F)c2F)C1=O (racemic)"
target_system = "corn (Zea mays)"
measured_quantity = "plant injury at 250 g/ha"
result_value = 10

[[record]]
compound = "CN1C[C@@H](c2ccc(C(F)(F)F)cc2)[C@H](C(=O)Nc2cn[nH]c2)C1=O (racemic)"
target_system = "corn (Zea mays)"
measured_quantity = "plant injury at 250 g/ha"
result_value = 0

[[record]]
compound = "CN1C[C@@H](c2ccc(C(F)(F)F)cc2)[C@H](C(=O)Nc2ncc(C#N)s2)C1=O (racemic)"
target_system = "corn (Zea mays)"
measured_quantity = "plant injury at 250 g/ha"
result_value = 0

[[record]]
compound = "Cc1nnc(NC(=O)[C@@H]2C(=O)N(C)C[C@H]2c2ccc(C(F)(F)F)cc2)nc1C (racemic)"
target_system = "corn (Zea mays)"
measured_quantity = "plant injury at 250 g/ha"
result_value = 0

[[record]]
compound = "CN1C[C@@H](c2cc(Cl)cc(C(F)(F)F)c2)[C@H](C(=O)Nc2ccccc2F)C1=O (racemic)"
target_system = "corn (Zea mays)"
measured_quantity = "plant injury at 250 g/ha"
result_value = 80

[[record]]
compound = "C=CCc1c(Cl)cccc1NC(=O)[C@H]1C(=O)N(C)C[C@H]1c1ccc(C(F)(F)F)cc1 (racemic)"
target_system = "corn (Zea mays)"
measured_quantity = "plant injury at 250 g/ha"
result_value = 10

[[record]]
compound = "CN1C[C@@H](c2cc(Cl)nc(C(F)(F)F)c2)[C@H](C(=O)Nc2cccc(F)c2F)C1=O (racemic)"
target_system = "corn (Zea mays)"
measured_quantity = "plant injury at 250 g/ha"
result_value = 80


----------
The entries below come with measured pest or weed control at 250 g/ha values attached.
test system: ivy-leaved morning glory (Ipomoea hederacea); test: Test G Post-Emergence Protocol; type: in vivo; conditions: Ipomoea, post-emergence, 312 h, 250 g ai/ha, evaluated after 13 days, read-out: damage to plant, Morningglory, Ivy-leaved (100=total damage to plant; 0=no damage to plant)
measured quantity: pest or weed control at 250 g/ha (%)

[[record]]
molecule = "Cc1nnc(NC(=O)[C@@H]2C(=O)N(C)C[C@H]2c2ccc(C(F)(F)F)cc2)nc1C (racemic)"
measured_quantity = "pest or weed control at 250 g/ha"
unit_abbrev = "%"
result_value = 0

[[record]]
molecule = "Cc1c(C#N)cccc1NC(=O)[C@H]1C(=O)N(C)C[C@@H]1c1ccc(C(F)(F)F)cc1 (racemic)"
measured_quantity = "pest or weed control at 250 g/ha"
unit_abbrev = "%"
result_value = 10

[[record]]
molecule = "CN1C[C@H](c2cccc(C(F)F)c2)[C@@H](C(=O)Nc2cccc(F)c2F)C1=O (racemic)"
measured_quantity = "pest or weed control at 250 g/ha"
unit_abbrev = "%"
result_value = 50

[[record]]
molecule = "CN1C[C@@H](c2ccc(C(F)(F)F)cc2)[C@H](C(=O)Nc2ncc(Br)cn2)C1=O (racemic)"
measured_quantity = "pest or weed control at 250 g/ha"
unit_abbrev = "%"
result_value = 0

[[record]]
molecule = "CN1C[C@H](c2cccc(C(F)F)c2)[C@@H](C(=O)Nc2ccccc2F)C1=O (racemic)"
measured_quantity = "pest or weed control at 250 g/ha"
unit_abbrev = "%"
result_value = 50

[[record]]
molecule = "CN1C[C@@H](c2ccc(NS(C)(=O)=O)cc2)[C@H](C(=O)Nc2ccccc2F)C1=O (racemic)"
measured_quantity = "pest or weed control at 250 g/ha"
unit_abbrev = "%"
result_value = 0


----------
tested on: giant foxtail (Setaria faberii); test: Test A preemergence; assay type: in vivo; details: Preemergence, 500 g ai/ha; 0 is no effect, 100 is complete control
Recorded measurements of Foxtail, Giant plant response rating (0 to 100 scale), one per entry
measured quantity: Foxtail, Giant plant response rating (0 to 100 scale)

[[record]]
molecule = "O=C1NCC(c2ccoc2)C1C(=O)Nc1ccccc1C(F)(F)F (racemic)"
result_value = 0

[[record]]
molecule = "O=C1NCC(c2ccccc2-c2ccccc2)C1C(=O)Nc1ccc(F)c(F)c1F (racemic)"
result_value = 30

[[record]]
molecule = "O=C1NCC(c2cccc(O)c2)C1C(=O)Nc1cccc(F)c1F (racemic)"
result_value = 0

[[record]]
molecule = "Cn1nccc1NC(=O)C1C(=O)NCC1c1ccc(F)c(F)c1 (racemic)"
result_value = 0


----------
test system: Kochia (Kochia scoparia); assay: Test A preemergence; format: in vivo; settings: Bassia scoparia, pre-emergence, 240 h, Preemergence, 125 g ai/ha; 0 to 100 scale (0 no effect, 100 complete control); read-out: Plant response rating, Kochia
# pest or weed control at 125 g/ha per entry
measured quantity: pest or weed control at 125 g/ha (%)

[[record]]
compound = "C=CCOc1cccc(C2CN(C)C(=O)C2C(=O)Nc2ccccc2F)c1 (stereo not shown)"
measured_quantity = "pest or weed control at 125 g/ha"
result_value = 50

[[record]]
compound = "CN1C[C@H](c2cccc(C(F)(F)F)c2)[C@@H](C(=O)Nc2cccnc2F)C1=O"
measured_quantity = "pest or weed control at 125 g/ha"
result_value = 60

[[record]]
compound = "CC(C)=Cc1cc([C@H]2CN(C)C(=O)[C@@H]2C(=O)Nc2cccc(F)c2F)ccc1C(F)(F)F"
measured_quantity = "pest or weed control at 125 g/ha"
result_value = 0

[[record]]
compound = "CN1CC[C@H](c2cccc(C(F)(F)F)c2)[C@@H](C(=O)Nc2cccc(F)c2F)C1=O"
measured_quantity = "pest or weed control at 125 g/ha"
result_value = 20


----------
system: Kochia (Kochia scoparia); experiment: Test A preemergence; type: in vivo; details: Bassia scoparia, pre-emergence, 240 h, 31 g ai/ha, Preemergence; 0 to 100 scale where 0 is no effect and 100 is complete control; read-out: Kochia plant response rating
The entries below are paired with their reported pest or weed control at 31 g/ha.
measured quantity: pest or weed control at 31 g/ha (%)

[[record]]
compound = "COc1c([C@H]2CN(C)C(=O)[C@@H]2C(=O)Nc2ccccc2F)cccc1C(F)(F)F [Compound 1338]"
unit_abbrev = "%"
result_value = 0

[[record]]
compound = "CSc1ccccc1NC(=O)[C@H]1C(=O)N(C)C[C@@H]1c1ccc(C)cc1 [Compound 1187]"
unit_abbrev = "%"
result_value = 50

[[record]]
compound = "CN1C[C@H](c2csc3c2CCCC3)[C@@H](C(=O)Nc2cccc(F)c2F)C1=O [Compound 1276]"
unit_abbrev = "%"
result_value = 30

[[record]]
compound = "CN1C[C@H](c2ccc(C(F)(F)F)cc2)[C@@H](C(=O)Nc2ccc(F)nc2F)C1=O [Compound 1347]"
unit_abbrev = "%"
result_value = 90

[[record]]
compound = "O=C(Nc1cccc(F)c1F)[C@H]1C(=O)N(CC(F)F)C[C@@H]1c1cccc(C(F)(F)F)c1 [Compound 1296]"
unit_abbrev = "%"
result_value = 0

[[record]]
compound = "Cc1cc([C@H]2CN(C)C(=O)[C@@H]2C(=O)Nc2cccc(F)c2F)no1 [Compound 1237]"
unit_abbrev = "%"
result_value = 0

[[record]]
compound = "Cc1cccc([C@H]2CN(C)C(=O)[C@@H]2C(=O)Nc2ccc(F)nc2F)c1 [Compound 1349]"
unit_abbrev = "%"
result_value = 0

[[record]]
compound = "CN1CC[C@H](c2ccccc2C(F)(F)F)[C@@H](C(=O)Nc2ccccc2C(F)(F)F)C1=O [Compound 1008]"
unit_abbrev = "%"
result_value = 0

[[record]]
compound = "CC(O)c1ccccc1NC(=O)C1C(=O)N(C)CC1c1cccc(C(F)(F)F)c1 (stereo not shown) [Compound 1147]"
unit_abbrev = "%"
result_value = 0

[[record]]
compound = "CN1C[C@H](c2csc3c2CCC3)[C@@H](C(=O)Nc2ccccc2S(C)(=O)=O)C1=O [Compound 1082]"
unit_abbrev = "%"
result_value = 0

